target.or.system: CRBN-DDB1 (Homo sapiens (Human), UniProt Q96SW2)
Sequence (Q96SW2 whole entry): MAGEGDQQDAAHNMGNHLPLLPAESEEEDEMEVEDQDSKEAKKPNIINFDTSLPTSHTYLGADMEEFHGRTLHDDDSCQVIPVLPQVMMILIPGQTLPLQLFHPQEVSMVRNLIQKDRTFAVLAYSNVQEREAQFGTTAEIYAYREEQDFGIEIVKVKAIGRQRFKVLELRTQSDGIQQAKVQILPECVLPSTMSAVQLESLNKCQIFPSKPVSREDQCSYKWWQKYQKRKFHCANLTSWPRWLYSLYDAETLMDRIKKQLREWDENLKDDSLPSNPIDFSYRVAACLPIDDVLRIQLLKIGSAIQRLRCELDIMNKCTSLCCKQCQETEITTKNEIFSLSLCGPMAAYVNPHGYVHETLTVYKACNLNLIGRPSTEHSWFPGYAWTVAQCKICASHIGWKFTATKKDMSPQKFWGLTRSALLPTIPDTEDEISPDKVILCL
Sequence (Q16531 whole entry partner): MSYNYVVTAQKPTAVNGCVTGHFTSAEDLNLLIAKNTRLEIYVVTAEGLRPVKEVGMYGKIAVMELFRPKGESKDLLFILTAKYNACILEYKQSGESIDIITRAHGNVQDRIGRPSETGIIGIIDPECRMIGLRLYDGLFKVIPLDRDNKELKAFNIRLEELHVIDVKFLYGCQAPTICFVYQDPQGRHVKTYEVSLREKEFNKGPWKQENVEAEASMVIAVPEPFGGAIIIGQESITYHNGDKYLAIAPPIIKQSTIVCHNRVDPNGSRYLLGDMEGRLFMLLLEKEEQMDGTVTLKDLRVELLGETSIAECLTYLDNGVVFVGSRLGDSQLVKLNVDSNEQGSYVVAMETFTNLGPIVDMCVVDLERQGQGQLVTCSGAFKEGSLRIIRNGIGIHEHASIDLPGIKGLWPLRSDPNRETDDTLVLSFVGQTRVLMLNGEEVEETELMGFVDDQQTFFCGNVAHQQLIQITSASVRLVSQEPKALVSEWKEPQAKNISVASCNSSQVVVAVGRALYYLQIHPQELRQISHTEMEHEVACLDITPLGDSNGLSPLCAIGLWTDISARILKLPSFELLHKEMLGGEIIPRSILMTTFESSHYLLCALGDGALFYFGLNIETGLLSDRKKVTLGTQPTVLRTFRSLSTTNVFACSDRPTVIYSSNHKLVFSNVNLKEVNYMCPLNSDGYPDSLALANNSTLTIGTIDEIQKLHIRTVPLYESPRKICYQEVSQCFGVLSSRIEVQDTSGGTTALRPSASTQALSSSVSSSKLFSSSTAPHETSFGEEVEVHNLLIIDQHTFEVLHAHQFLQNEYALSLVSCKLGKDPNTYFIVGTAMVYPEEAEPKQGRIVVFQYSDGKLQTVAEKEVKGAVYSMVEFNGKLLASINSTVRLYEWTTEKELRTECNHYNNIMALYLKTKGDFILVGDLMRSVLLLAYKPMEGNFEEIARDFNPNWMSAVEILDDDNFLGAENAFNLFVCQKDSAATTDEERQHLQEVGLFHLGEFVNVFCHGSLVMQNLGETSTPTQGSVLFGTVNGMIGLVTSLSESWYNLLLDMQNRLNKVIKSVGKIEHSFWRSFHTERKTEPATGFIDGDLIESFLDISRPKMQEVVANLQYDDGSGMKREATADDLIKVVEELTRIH
assay.text: CRBN-DDB1 fluorescence polarization (FP) binding assay
protocol.conditions: displacement of Thalidomide-Alexa Fluor or Pomalidomide-fluorescein probe
Counter-ions that a name gives are not always drawn.
test.readout: Kd

CN(C(=O)C1CCC(=O)NC1=O)c1ccccc1F (stereo not drawn)
50 to 100 µM
O=C1CCC(C(=O)Nc2ccccn2)C(=O)N1 (stereo not drawn)
> 100 µM
Cn1nc(C2(C)CCC(=O)NC2=O)c2ccccc21 (stereo not drawn)
10 to 50 µM
Cn1nc([C@@H]2CCC(=O)NC2=O)c2ccccc21
< 10 µM
Cn1nc(C2CCC(=O)NC2=O)c2ccc(N)cc21 (stereo not drawn)
50 to 100 µM
Cn1nc(C2CCC(=O)NC2=O)cc1-c1ccccc1 (stereo not drawn)
< 10 µM
Cn1cc(C2CCC(=O)NC2=O)nn1 (stereo not drawn)
50 to 100 µM
CC1(c2ccccc2N)CCC(=O)NC1=O (stereo not drawn)
> 30 µM
O=C1CCC(C(=O)Nc2cccnc2)C(=O)N1 (stereo not drawn)
> 100 µM
Cn1ccc(C2CCC(=O)NC2=O)n1 (stereo not drawn)
10 to 50 µM
O=C1CCC(C(=O)Nc2ccccc2)C(=O)N1 (stereo not drawn)
50 to 100 µM
Cn1c(=O)c(C2CCC(=O)NC2=O)cc2ccccc21 (stereo not drawn)
< 10 µM
COc1ccccc1NC(=O)C1CCC(=O)NC1=O (stereo not drawn)
10 to 50 µM
CC(C)(C)OC(=O)N1Cc2ccc(C3CCC(=O)NC3=O)cc2C1 (stereo not drawn)
10 to 50 µM
Cn1ccc2ccc(C3CCC(=O)NC3=O)nc21 (stereo not drawn)
10 to 50 µM
Cn1nc(CC2CCC(=O)NC2=O)c2ccccc21 (stereo not drawn)
> 100 µM
O=C1CCC(O)(C(=O)OCc2ccccc2)C(=O)N1 (stereo not drawn)
10 to 50 µM
O=C1NC(=O)C2(c3ccccc3)CC1C2
> 30 µM
Cn1cc(CC2CCC(=O)NC2=O)nn1 (stereo not drawn)
50 to 100 µM
O=C1CCC(c2ncc3ccccn23)C(=O)N1 (stereo not drawn)
< 10 µM
Cc1nc2cc(C3CCC(=O)NC3=O)ccc2s1 (stereo not drawn)
< 10 µM
O=C1NC(=O)C2(c3ccccc3)CC12 (stereo not drawn)
> 100 µM
O=C1CCC(c2cn(-c3ccccc3)cn2)C(=O)N1 (stereo not drawn)
10 to 50 µM
O=C1NC(=O)C2(c3ccc([N+](=O)[O-])cc3)CC12 (stereo not drawn)
> 100 µM
Cn1nc([C@H]2CCC(=O)NC2=O)c2ccccc21
10 to 50 µM
COc1ccccc1N(C)C(=O)C1CCC(=O)NC1=O (stereo not drawn)
> 100 µM
CC1(c2ccc(N)cc2)CCC(=O)NC1=O (stereo not drawn)
> 30 µM
O=C1CCC(C(=O)Nc2ccccc2F)C(=O)N1 (stereo not drawn)
> 100 µM
Nc1ccc(C23CC2C(=O)NC3=O)cc1 (stereo not drawn)
> 30 µM
COc1cccc(C2CCC(=O)NC2=O)n1 (stereo not drawn)
10 to 50 µM
CS(=O)(=O)Nc1ccc(C23CC2C(=O)NC3=O)cc1 (stereo not drawn)
> 100 µM
Cn1c(CC2CCC(=O)NC2=O)nc2ccccc21 (stereo not drawn)
50 to 100 µM
Cn1c(=O)oc2ccc(C3CCC(=O)NC3=O)cc21 (stereo not drawn)
10 to 50 µM
Cn1nc(C2CCC(=O)NC2=O)c2ccc(NC3CCN(C(=O)OC(C)(C)C)CC3)cc21 (stereo not drawn)
< 10 µM
Cc1nc(C2CCC(=O)NC2=O)n2ccccc12 (stereo not drawn)
< 10 µM
Cc1nc(C2CCC(=O)NC2=O)cn1-c1ccccc1 (stereo not drawn)
10 to 50 µM
CN(C(=O)C1CCC(=O)NC1=O)c1ccccn1 (stereo not drawn)
> 100 µM
CC1(c2ccccc2)CCC(=O)NC1=O (stereo not drawn)
> 30 µM
CC(C)(C)OC(=O)N1Cc2cccc(C3CCC(=O)NC3=O)c2C1 (stereo not drawn)
10 to 50 µM
O=C1CCC(c2ccc3c(c2)CNC3)C(=O)N1 (stereo not drawn) [Compound 55, hydrochloride]
50 to 100 µM
O=C1CCC(c2cn(-c3ccccc3)nn2)C(=O)N1 (stereo not drawn)
10 to 50 µM
O=C1CCC(Cc2ccccc2)C(=O)N1 (stereo not drawn)
10 to 50 µM
